Assay: yeast display, Sf9 membrane polyspecificity reagent, FACS + sequencing; frameworks hold sequencing errors
assay-metric: polyreactivity (PSR sort gate)

Check out these entries, answers already filled in.
[
  {
    "item-sequence": "QVQLVESGGGLVQAGGSLRLSCAASGSTFPLYAMGRYRQAPGKERELVAAITSGGGNTYYADSLKGRFTISRDNAKNTVYLQMNSLKPEDTAVYYCAAVGGYKSYYSYEYDYWGQGTQVTVSS",
    "polyreactivity (PSR sort gate)": "low polyreactivity"
  },
  {
    "item-sequence": "QVQLVESGGGLVQAGGNLRLICDASGSIFLYNTMGWYRHAPGQERELVAAITYSGGSTYYADSVKGRFTISRDNAKNTVYLQMNSLNPEDTAVYYCNARHYSAFYSWGQGTQVTVSS",
    "polyreactivity (PSR sort gate)": "high polyreactivity"
  },
  {
    "item-sequence": "QVQLVESGGGLVQAGGSLRLSCAASGRIFYRYGMGWYRQAPGKERELVASITRGGSTYYADSVKGRFTISRDNAKYTVYLQMNSLKPEDTAVYYCATKSSAGYDYWGQGTQVTVSS",
    "polyreactivity (PSR sort gate)": "low polyreactivity"
  },
  {
    "item-sequence": "QVQLVESGGGLVQAGGSLRLSCAASGSTFSRYAMGWYRQAPGKERELVAAITYRGARTYYADSVKGRFTISRDNAKNTVYLQMNSLKPEDTAVYYCNTVPPPYNFRYGYWGQGTQVTVSS",
    "polyreactivity (PSR sort gate)": "high polyreactivity"
  },
  {
    "item-sequence": "QVQLVESGGGLVQAGGSLRLSCAASGSIFLRYAMGWSRQARGKERELVAAITSSGRTNYADPVKGRFTISRDNAKNTVYLQMNSLKPEDTAVYYCAAVSYRQGVYRRNRYYYWGQGTQVTVSS",
    "polyreactivity (PSR sort gate)": "high polyreactivity"
  }
]

Let's switch to this sequence now.
I'd like to know its polyreactivity (PSR sort gate). The sequence in question is QVQLVESGGGLVQAGGSLRLSCAASGRIFQYYAMGWYRQAPGKERELVAAISRGGSTNYADSVKGRFTISRDNAKNTVYCQMNSLIPVDTAVYYCAGDEYRYYFFRPGIGYDYWGQGTQVTVSS
low polyreactivity

---

Experiment: yeast display, Sf9 membrane polyspecificity reagent, FACS + sequencing; frameworks hold sequencing errors
assay-metric: polyreactivity (PSR sort gate)

[
  {
    "item-sequence": "QVQLVESGGGLVQAGASLRLSCAASGITFTPYAMGWYRQAPGKERELVAAISWRGGSTYYADSVKGRFTISRDNAKNTVYLQMNSLKPEDTAVYYCAKDGRGYGRYSRYYTGDYWGQGTQVTVSS",
    "measurement": "low polyreactivity"
  },
  {
    "item-sequence": "QVQLVESGGGLVQAGGSLRLSCAASGSTFSYNAMGWYRQAPGKERELVAAITSSGSSTYYADSVKGRFTISRYNAKNTVYLQMNSMKPEDTAVYYCNAEVLFVAGQVQRNSGDYWGQGTEVTVSS",
    "measurement": "low polyreactivity"
  },
  {
    "item-sequence": "QVQLVESGGGLVQAGGSLRLSCAASGRILRYNAMGWYRQAPGKERELVATITRSAGRTYSADSVKGRFTISRDNAKNTVYLQMNSLKPEDTAVYYCAKDTDISTLHSKGRAKSRYDYWGQGTQVTVSS",
    "measurement": "low polyreactivity"
  },
  {
    "item-sequence": "QVQLVESGGGLVQAGCSLRISCAASGFTFGKYAMGLYRQAPGNERELVAAITQCGGSTYYADSVKGRFTISRDNAKNTVYLQMNSLKPEYTAVYYCAADRRRQYRPGGYWGQGTQVTVSS",
    "measurement": "high polyreactivity"
  },
  {
    "item-sequence": "QVQLGESGGGLFQAGGSLRLSCAASGFTFVYYAMGWYRQAPGKERELVATISGNGGRTYYADSVKGRFTISRDNAKNTVYLQMNSLKPEDTAVYYCAALLYISSVGYDYWGQGTQVTVSS",
    "measurement": "low polyreactivity"
  },
  {
    "item-sequence": "QVQLVESGGGLVQAGGSLRLSCAASGSTFRYYVMGWYRQAPGKERELVAAISSSGGSTYYADSVKGRFTISRDIAKNTVYLQMNSLKPEDTAVYYCARDKGYVSYRYNYWGQGTQVTVSS",
    "measurement": "high polyreactivity"
  },
  {
    "item-sequence": "QVQLVESGGALVQAGGSHRLSCAASGRTFHFNAMGWYRPATGKERELVAAITNSGGRTSYADSVKGRFTISRDNAKNTVYLQMNSMKPEDTAVYYCNVEVTYSSGKYDYWGPGTQVTVSS",
    "measurement": "low polyreactivity"
  },
  {
    "item-sequence": "QDQLGESGGGLVQAGGSLRLSCAASGLTFYFYAMGWYRPAPGKEREFVATISFSGGSTYYADSVKGRFTISRDNAKNTVYIQMNSLKPEDTAVYYCNAESDYYWYPYNYWGQGTQVTVSS",
    "measurement": "low polyreactivity"
  },
  {
    "item-sequence": "QVQLVESGGGLVQAGRSLRLSCAASGSTFRQNAMGWYRQAPGKERELVAGITFSSGSTYYADSVKGRFTISRDIAKNTLYLQMNSLKPEDTAVYYCAVRNASKNRKYYYWGQGTQVTVSS",
    "measurement": "high polyreactivity"
  },
  {
    "item-sequence": "QVQLVESGGGLVQAGGSLRLSCAASGFTFGRNAMGWYRQAPGKERELVAAISSSGGTTYYADSVKGRFTISRDNAKNTVYLQMNSLKPEDTAVYSCAARRWYQSRRGGFDYWGQGTQVTVSS",
    "measurement": "high polyreactivity"
  }
]

I'd like to know its polyreactivity (PSR sort gate). The sequence in question is QVQLVESGGGLVQAGGSLRLSCAASGIIFTKYFMGWYRQAPGKERELVAAINTDGGSTRYADSVKGRFTISRDNAKNTVYLQMNSLKPEDTAVYYCAAVSSRRPGYEYYYWGQGTQVTVSS
high polyreactivity

I'd like to know its polyreactivity (PSR sort gate). The sequence in question is QVQLVESGGGLVQAGGSLLLSCAASGIIFTRYVMGWYRQAPGKERELVATIRIGGSTTYADSVKGRFTISRDNAKITVYLQMYSLKPEDTAVYYCAADTWYITTYGGAGSYAYGFYYWGQGTQVTVSS
low polyreactivity

I'd like to know its polyreactivity (PSR sort gate). The sequence in question is QVQLVESGGGLVQAGGSLRLSCAASGFIFRHYAMGWYRQAPGKARELVAVINWSGSSTYYADSVKGRFTISRDNAKNTVYLQMNSLKPEDTAVYYCAVRSLRVDKYGYWGQGTQVTVSS
high polyreactivity

I'd like to know its polyreactivity (PSR sort gate). The sequence in question is QVQLVESGGGLVQAGGSLRLSCAASGSTFQVNAMGWYRQAPGKERELVASISGGSSTNYADSVKGRFTISRDNAKNTVYLQMNSLKPEDTAVYYCAAYYLSGLRVAYDYWGQGTQVTVSS
low polyreactivity

I'd like to know its polyreactivity (PSR sort gate). The sequence in question is QVQLVESGGGLVQAGGSLRLSCAASGFTFGANDMGRYIQAPGKERELVATISSSGGTTYYADSVKGRFTISRDNAKYTVYLQMNSLKPEDTAVYYCAAKGLFTGRVSRYADDHWGQGTEVTVSS
low polyreactivity

I'd like to know its polyreactivity (PSR sort gate). The sequence in question is QVQIVESGGGLVQAGGSLRLSCAASGSIFSYYAMGWYRQAPGKERELVAGITGGGSTDYADSVKGRFTISRDNAKITVYLQMISLKPEDTAVYYCSTDGKPSFYSFDYCGQGTQVTVSS
low polyreactivity

I'd like to know its polyreactivity (PSR sort gate). The sequence in question is QVQLVESGGGLVQAGGSLRLSCAASGNTFYAYAMGWYRQAPGKERELVAAIARGGNTYYADSVKGRFTISRDNAKNTVYLQMNSLKPEDTAVYYCHAYYPIRSSPYGYYYWGQGTQVTVSS
high polyreactivity

I'd like to know its polyreactivity (PSR sort gate). The sequence in question is QVQLVESGGGLVQAGGSLRLSCAASGSTFNINVMGWYRQAPGKERELVASISTGDITYYADSVKGRFTISRDNAKNTVYLQMNSLKPEDTAVYYCNAEDDLYWWVWYAVGEEYWGQGTQVTVSS
low polyreactivity
